// values below are MIC; system is Serratia marcescens IFO 12648
reported metric: MIC (µg/mL)

> print(dat)
                                    compound  recorded.value
 1  CN1COc2c(N3CCOCC3)c(F)cc3c(=O)c(C(=O)O)cn1c23 [Example 9]            0.78
 2  CN1COc2c(N3CCN(CC(=O)c4ccccc4)CC3)c(F)cc3c(=O)c(C(=O)O)cn1c23 [Example 41]            3.13
 3  CN1COc2c(N3CCC(O)CC3)c(F)cc3c(=O)c(C(=O)O)cn1c23 [Example 13]            0.39
 4  CN1COc2c(N3CCC(Cl)C3)c(F)cc3c(=O)c(C(=O)O)cn1c23 (centres unmarked) [Example 59]            3.13
 5  CCNC1CCN(c2c(F)cc3c(=O)c(C(=O)O)cn4c3c2OCN4C)C1 (centres unmarked) [Example 32]            0.39
 6  CN1COc2c(N3CCN(CCF)CC3)c(F)cc3c(=O)c(C(=O)O)cn1c23 [Example 44]            0.39
 7  CCN1CCN(c2c(F)cc3c(=O)c(C(=O)O)cn4c3c2OCN4C)CC1 [Example 42]             0.1
 8  CN1COc2c(N3CCNC(c4ccccc4)C3)c(F)cc3c(=O)c(C(=O)O)cn1c23 (centres unmarked) [Example 8]             0.1
 9  CN1COc2c(N3CCN(Cc4ccc(N)cc4)CC3)c(F)cc3c(=O)c(C(=O)O)cn1c23 [Example 53]            0.78
10  CC(=O)NCC1CCN(c2c(F)cc3c(=O)c(C(=O)O)cn4c3c2OCN4C)C1 (centres unmarked) [Example 19]            3.13
11  CN1COc2c(N3CCC(N)C3)c(F)cc3c(=O)c(C(=O)OCOC(=O)C(C)(C)C)cn1c23 (centres unmarked) [Example 63]            3.13
12  CCCN1CCN(c2c(F)cc3c(=O)c(C(=O)O)cn4c3c2OCN4C)CC1 [Example 43]             0.2
13  CC(=O)N1CCN(c2c(F)cc3c(=O)c(C(=O)O)cn4c3c2OCN4C)CC1 [Example 50]            3.13
14  CNCC1CCN(c2c(F)cc3c(=O)c(C(=O)O)cn4c3c2OCN4C)C1 (centres unmarked) [Example 17]            0.78
15  CN1COc2c(N3CCS(=O)(=O)CC3)c(F)cc3c(=O)c(C(=O)O)cn1c23 [Example 39]            1.56
16  CN1COc2c(N3CCCNCC3)c(F)cc3c(=O)c(C(=O)O)cn1c23 [Example 16]            0.39
17  CNC1CCN(c2c(F)cc3c(=O)c(C(=O)O)cn4c3c2OCN4C)CC1 [Example 34]            0.78
18  CC(=O)CN1CCN(c2c(F)cc3c(=O)c(C(=O)O)cn4c3c2OCN4C)CC1 [Example 40]            1.56
19  CC1CN(c2c(F)cc3c(=O)c(C(=O)O)cn4c3c2OCN4C)CCN1 (centres unmarked) [Example 7]             0.2
20  CN1COc2c(N3CCN(CCO)CC3)c(F)cc3c(=O)c(C(=O)O)cn1c23 [Example 15]            0.39
21  CN1COc2c(N3CCN(CS(=O)(=O)O)CC3)c(F)cc3c(=O)c(C(=O)O)cn1c23 [Example 52]             0.2
22  CN1COc2c(N3CCNC(=O)C3)c(F)cc3c(=O)c(C(=O)O)cn1c23 [Example 24]            6.25
23  CN1COc2c(N3CCC(CN)CC3)c(F)cc3c(=O)c(C(=O)O)cn1c23 [Example 12]            3.13
24  CN1COc2c(N3CCNCC3)c(F)cc3c(=O)c(C(=O)O)cn1c23 [Example 6]             0.1
25  Cc1cn(-c2c(F)cc3c(=O)c(C(=O)O)cn4c3c2OCN4C)cn1 [Example 22]            0.78
26  CN1COc2c(N3CCC(O)C3)c(F)cc3c(=O)c(C(=O)O)cn1c23 (centres unmarked) [Example 21]            0.39
27  CC1Oc2c(N3CCNCC3)c(F)cc3c(=O)c(C(=O)O)cn(c23)N1C (centres unmarked) [Example 25]            3.13
28  C=CCN1CCN(c2c(F)cc3c(=O)c(C(=O)O)cn4c3c2OCN4C)CC1 [Example 46]            0.39
29  CN1CCN(c2c(F)cc3c(=O)c(C(=O)O)cn4c3c2OCN4C)CC1 [Example 5]             0.1
30  CN1COc2c(N3CCN(CC(=O)O)CC3)c(F)cc3c(=O)c(C(=O)O)cn1c23 [Example 45]            0.78
31  CC1Oc2c(N3CCN(C)CC3)c(F)cc3c(=O)c(C(=O)O)cn(c23)N1C (centres unmarked) [Example 26]            1.56
32  CCN(C)CC1CCN(c2c(F)cc3c(=O)c(C(=O)O)cn4c3c2OCN4C)C1 (centres unmarked) [Example 48]            1.56
33  COC1CCN(c2c(F)cc3c(=O)c(C(=O)O)cn4c3c2OCN4C)CC1 [Example 38]            12.5
34  CN1COc2c(-n3ccnc3)c(F)cc3c(=O)c(C(=O)O)cn1c23 [Example 56]            0.78
35  CNC1CCN(c2c(F)cc3c(=O)c(C(=O)O)cn4c3c2OCN4C)C1 (centres unmarked) [Example 31]             0.2
